Target: GCase (Homo sapiens)
Construct: endogenous in cells; host or cells: HeLa cells
Sequence (P04062 40-536): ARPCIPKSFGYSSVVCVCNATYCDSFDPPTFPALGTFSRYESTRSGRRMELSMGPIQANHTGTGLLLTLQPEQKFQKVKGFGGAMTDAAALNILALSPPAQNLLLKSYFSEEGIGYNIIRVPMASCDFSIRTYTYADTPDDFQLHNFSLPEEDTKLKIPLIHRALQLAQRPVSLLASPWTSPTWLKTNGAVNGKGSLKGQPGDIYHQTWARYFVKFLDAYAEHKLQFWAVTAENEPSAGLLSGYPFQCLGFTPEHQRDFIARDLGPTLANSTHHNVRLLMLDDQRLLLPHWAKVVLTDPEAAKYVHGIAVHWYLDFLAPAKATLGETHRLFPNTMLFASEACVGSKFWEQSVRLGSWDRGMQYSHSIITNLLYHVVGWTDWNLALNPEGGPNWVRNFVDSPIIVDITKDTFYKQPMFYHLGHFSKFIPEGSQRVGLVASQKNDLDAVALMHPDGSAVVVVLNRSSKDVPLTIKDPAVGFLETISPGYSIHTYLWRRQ
Assay: activation of GCase in a live cell PFB assay in HELA cells
Format: cell-based
Details: activation of GCase, EC50 ranges
measurement_label: EC50

Record excerpt, results attached:
[[record]]
compound = "O=C1N(c2ccnc(C(F)(F)F)n2)CCC12CCN(c1cnc3cnn(CC(F)F)c3n1)CC2"
measurement_label = "EC50"
test_result = "< 10 µM"

[[record]]
compound = "FC(F)Cn1ncc2ncc(N3CCC4(CCN(c5cccnc5C(F)(F)F)CC4)C3)nc21"
measurement_label = "EC50"
test_result = "10 to 50 µM"

[[record]]
compound = "CCC1N(c2cnc(C(F)(F)F)nc2)C(=O)CC12CCN(c1cnc3cnn(CC(F)F)c3n1)CC2 (centres unmarked)"
measurement_label = "EC50"
test_result = "10 to 50 µM"

[[record]]
compound = "FC(F)Cn1ncc2ncc(N3CCCC4(CN(c5ccccc5)C4)C3)nc21"
measurement_label = "EC50"
test_result = "10 to 50 µM"

[[record]]
compound = "O=C1CC2(CCN(c3cnc4cnn(CC(F)F)c4n3)CC2)CN1Cc1cnc(C(F)(F)F)s1"
measurement_label = "EC50"
test_result = "10 to 50 µM"

[[record]]
compound = "CCn1c(=O)n(CC(F)F)c2nc(N3CCC4(CN(c5cc(C(F)(F)F)nc(C)n5)C4)C3)ncc21"
measurement_label = "EC50"
test_result = "< 10 µM"


Task item: EC50 for Cc1nc(N2CC3(CCN(c4cnc5cnn(CC(F)F)c5n4)C3)CC2=O)cc(C(F)(F)F)n1 (centres unmarked) ?
Reply: > 100 µM

Task item: Tell me the measured EC50 of CCC1N(c2ccc(C(F)(F)F)nc2)C(=O)CC12CCN(c1cnc3cnn(C4COC4)c3n1)CC2 (centres unmarked) , please.
Reply: 10 to 50 µM
